Provide the reported furin cleavage Z-score of each item.
# measured_on: furin, P09958
# Sequence (P09958 whole entry): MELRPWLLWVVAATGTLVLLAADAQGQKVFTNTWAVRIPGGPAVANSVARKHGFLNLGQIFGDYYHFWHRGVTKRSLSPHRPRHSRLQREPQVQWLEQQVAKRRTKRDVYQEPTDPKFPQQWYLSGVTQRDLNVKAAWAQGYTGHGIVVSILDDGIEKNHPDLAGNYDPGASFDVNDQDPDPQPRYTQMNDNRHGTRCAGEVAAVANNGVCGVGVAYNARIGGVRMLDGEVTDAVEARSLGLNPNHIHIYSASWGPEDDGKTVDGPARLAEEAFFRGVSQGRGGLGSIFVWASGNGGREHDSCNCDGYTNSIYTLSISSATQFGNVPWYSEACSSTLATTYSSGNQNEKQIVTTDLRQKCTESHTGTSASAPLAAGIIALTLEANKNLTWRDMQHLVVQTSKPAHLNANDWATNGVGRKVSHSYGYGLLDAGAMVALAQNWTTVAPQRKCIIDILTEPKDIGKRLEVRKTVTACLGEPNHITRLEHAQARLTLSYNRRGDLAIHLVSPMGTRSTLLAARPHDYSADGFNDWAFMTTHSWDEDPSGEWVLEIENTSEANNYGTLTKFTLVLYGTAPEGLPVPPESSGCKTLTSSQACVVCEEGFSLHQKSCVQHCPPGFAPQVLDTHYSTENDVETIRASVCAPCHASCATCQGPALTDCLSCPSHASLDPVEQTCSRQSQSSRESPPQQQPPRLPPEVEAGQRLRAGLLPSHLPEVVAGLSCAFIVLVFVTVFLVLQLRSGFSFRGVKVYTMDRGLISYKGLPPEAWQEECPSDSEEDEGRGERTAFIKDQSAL
# assay_procedure: furin cleavage Z-score vs untreated control; higher = more cleavage, active = 3.5 or more, inactive = 1 or less, 8 variable residues between constant flanks;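 also: purified furin at 1:10 enzyme:substrate in 50 mM HEPES pH 7.5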
# run_parameters: 15 min
The other results are listed elsewhere or left out. The hit rate among all sequences tested is not known here.
Please give only the number in your answer, with no unit.

Endpoint output: furin cleavage Z-score of CAWPTRRRRLAGNASASA [FS-109] . Value?
10.6

Endpoint output: furin cleavage Z-score of CASRPSWGPTAGNASASA [HC212] . Value?
0.133

Endpoint output: furin cleavage Z-score of CAMEECSQRLAGNASASA [HC1753] . Value?
-0.514

Endpoint output: furin cleavage Z-score of CAQDVRCRRLAGNASASA [FS-478] . Value?
1.58
